Tested on: R.CglI (Corynebacterium glutamicum ATCC 13032)
Run description: EMSA
Conditions used: no metal, 0.1 mM EDTA; EMSA: 1 nM 33P-DNA, 1-500 nM protein monomer, 40 mM Tris-acetate pH 8.3 (25°C), 0.1 mM EDTA (NgoAVII: 5 mM Ca-acetate instead), 0.1 mg/ml BSA, 10% glycerol …
pKd: −log10 of the molar value.
Measurement name: pKd

>  <Residue sequence>
TACAATCGATAATAGCCGCCGTGCGAGCCCATT (double strand) [33 bp cognate duplex]

>  <Target of assay>
R.CglI (Corynebacterium glutamicum ATCC 13032)

>  <Measurement name>
pKd

>  <Result value>
8.04

$$$$

---

Test system: R.CglI in RN.CglI complex;N.CglI (Corynebacterium glutamicum ATCC 13032;Corynebacterium glutamicum ATCC 13032)
Run description: EMSA
Conditions used: EMSA: 1 nM 33P-DNA, 1-500 nM protein monomer, 40 mM Tris-acetate pH 8.3 (25°C), 0.1 mM EDTA (NgoAVII: 5 mM Ca-acetate instead), 0.1 mg/ml BSA, 10% glycerol …
pKd: −log10 of the molar value.

>  <Residue sequence>
TACAATCGATAATAGCCGCCGTGCGAGCCCATT (double strand) [33 bp cognate duplex]

>  <pKd>
8.72

$$$$

Attribution: paper PMC4267653
